All values here come from paper PMC9482650.

Target: DLG1_2, Q12959
Sequence (Q12959 314-412): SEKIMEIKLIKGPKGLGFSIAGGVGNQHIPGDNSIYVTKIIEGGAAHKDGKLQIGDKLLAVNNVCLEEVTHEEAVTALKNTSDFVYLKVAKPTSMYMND
Experiment: holdup assay
Design: key: below the threshold = too weak to quantify, mostly under pKd 3.1 to 4
Details: plain residues with an end cap or a label only (N-terminal biotin on a linker: ttds)
Readout Name: pKd
I'd appreciate a reply containing only the number, no unit.

Below, 2 binders whose answers are already recorded.
| Binder | pKd |
| --- | --- |
| RPLPRKVSQL [DOCK4, Q8N1I0] | 3.94 |
| KKYVDAETSL [SLC4A7, Q9Y6M7] | 3.56 |

Now turn to the next binder.
Task: Which pKd is listed for VDFPPKESSL [ACVR2A, P27037] ?
Result: 4.24
